Documented inhibition at 10 µM across a set of compounds
Tested on: human peripheral blood mononuclear cells (PBMC)
method-notes: Effects on human T-cell proliferation in vitro (3H-thymidine incorporation)
Assay type: cell-based
condition-set: Homo sapiens, PBMC, PMA + iono.; 10 μM; read-out: Percentage of inhibition of proliferation of stimulated PBMC
observation-type: inhibition at 10 µM

{"columns": ["molecular-string", "measurement-target", "test-value"],
 "data": [
  ["CC[C@H]1OC(=O)[C@H](C)[C@@H](O[C@H]2C[C@@](C)(OC)[C@@H](OC(=O)CCN(CC)CC)[C@H](C)O2)[C@H](C)[C@@H](O[C@@H]2O[C@H](C)C[C@H](N(C)C)[C@H]2O)[C@](C)(O)C[C@@H](C)CN(C)[C@H](C)[C@@H](O)[C@]1(C)O", "human peripheral blood mononuclear cells (PBMC)", "81%"],
  ["CC[C@H]1OC(=O)[C@H](C)[C@@H](O[C@H]2C[C@@](C)(OC)[C@@H](OC(=O)CCN(C)CCN(CC)CC)[C@H](C)O2)[C@H](C)[C@@H](O[C@@H]2O[C@H](C)C[C@H](N(C)C)[C@H]2O)[C@](C)(OC)C[C@@H](C)C(=O)N[C@H](C)[C@@H](O)[C@]1(C)O", "human peripheral blood mononuclear cells (PBMC)", "0%"],
  ["CC[C@H]1OC(=O)[C@H](C)[C@@H](O[C@H]2C[C@@](C)(OC)[C@@H](OC(=O)CCN(CC)CC)[C@H](C)O2)[C@H](C)[C@@H](O[C@@H]2O[C@H](C)C[C@H](N(C)C)[C@H]2O)[C@](C)(OC)C[C@@H](C)NC(=O)[C@H](C)[C@@H](O)[C@]1(C)O", "human peripheral blood mononuclear cells (PBMC)", "17%"],
  ["CC[C@H]1OC(=O)[C@H](C)[C@@H](O[C@H]2C[C@@](C)(OC)[C@@H](OC(=O)CCN3CCN(CCN(C)C)CC3)[C@H](C)O2)[C@H](C)[C@@H](O[C@@H]2O[C@H](C)C[C@H](N(C)C)[C@H]2O)[C@](C)(OC)C[C@@H](C)C(=O)N[C@H](C)[C@@H](O)[C@]1(C)O", "human peripheral blood mononuclear cells (PBMC)", "3%"]
]}

====

System: IL-6
method-notes: Inhibition of IL-6 production by stimulated human peripheral blood leukocytes in vitro
Type: cell-based
condition-set: 50 μM; PMA-stimulated PBL
Documented Percentage of inhibition of IL-6 production across a set of compounds
observation-type: Percentage of inhibition of IL-6 production

{"columns": ["compound", "test-value"],
 "data": [
  ["CCC1OC(=O)C(C)C(OC2CC(C)(OC)C(OC(=O)CCN(CC)CC)C(C)O2)C(C)C(OC2OC(C)CC(N(C)C)C2O)C(C)(OC)CC(C)C(=O)NC(C)C(O)C1(C)O (stereo not shown)", "100%"],
  ["CC[C@H]1OC(=O)[C@H](C)[C@@H](O[C@H]2C[C@@](C)(OC)[C@@H](OCCCN(CC)CC)[C@H](C)O2)[C@H](C)[C@@H](O[C@@H]2O[C@H](C)C[C@H](N(C)C)[C@H]2O)[C@](C)(O)C[C@@H](C)CN(C)[C@H](C)[C@H]2OC(=O)O[C@@]21C", "56%"],
  ["CCC(=O)N(C)[C@H]1C[C@@H](C)O[C@@H](O[C@@H]2[C@@H](C)[C@H](O[C@H]3C[C@@](C)(OC)[C@@H](OC(=O)CCN(CC)CC)[C@H](C)O3)[C@@H](C)C(=O)O[C@H](CC)[C@@](C)(O)[C@H](O)[C@@H](C)NC(=O)[C@H](C)C[C@@]2(C)OC)[C@@H]1O", "62%"],
  ["CCC1OC(=O)C(C)C(OC2CC(C)(OC)C(OCCCN3CCN(CCN(CC)CC)CC3)C(C)O2)C(C)C(OC2OC(C)CC(N(C)C)C2O)C(C)(O)CC(C)CN(C)C(C)C2OC(=O)OC12C (stereo not shown)", "51%"]
]}
